Every entry's value here was drawn from ChEMBL document CHEMBL3351474.

- Test system: H9c2
- run-description: Cytoprotective activity against ischemia-hypoxia injury in rat H9c2 cells assessed as increase in cell viability at 10 uM by MTT assay relative to control
- Type: functional
test-readout: Activity (%)
Quick note: give the figure in %, leave out the unit.

Observe how each entry below is paired with its result.
{"compound": "COc1cc2c(OC)cc3c(c2cc1OC)N(C)[C@@H](CO)c1c2c(cc(OC)c1-3)OCO2", "Activity / %": 32.71}
{"compound": "COc1cc2c(OC)cc3c(c2cc1OC)N(C)[C@@H](CC(C)=O)c1c2c(cc(OC)c1-3)OCO2", "Activity / %": 44.27}
{"compound": "COc1cc2c(OC)cc3c(c2cc1OC)N(C)[C@H](CC(=O)C[C@H]1c2c4c(cc(OC)c2-c2cc(OC)c5cc(OC)c(OC)cc5c2N1C)OCO4)c1c2c(cc(OC)c1-3)OCO2", "Activity / %": 44.75}

query: Given COc1cc2c(OC)cc3c(c2cc1OC)N(C)[C@H](CC(C)=O)c1c2c(cc(OC)c1-3)OCO2 , state its recorded Activity.
result: 29.1

query: Item COc1cc2c(OC)cc3c(c2cc1OC)N(C)[C@H](CO)c1c2c(cc(OC)c1-3)OCO2 has what recorded Activity?
result: 36.62

query: Query (compound): COc1cc2c(OC)cc3c(c2cc1OC)N(C)C(CC(=O)CC(C)(C)O)c1c2c(cc(OC)c1-3)OCO2 (racemic) ; field requested: Activity
result: 32.63

query: I would be grateful if you could share the reported Activity for COc1cc2c(OC)cc3c(c2cc1OC)N(C)[C@@H](CC(=O)C[C@H]1c2c4c(cc(OC)c2-c2cc(OC)c5cc(OC)c(OC)cc5c2N1C)OCO4)c1c2c(cc(OC)c1-3)OCO2 .
result: 27.48

* * *

- Tested on: H9c2
- run-description: Cytoprotective activity against ischemia-hypoxia injury in rat H9c2 cells assessed as increase in cell viability at 0.01 uM by MTT assay relative to control
- Assay type: functional
test-readout: Activity (%)
# output: bare number, implied unit %

{"compound": "COc1cc2c(OC)cc3c(c2cc1OC)N(C)C(CC(=O)CC(C)(C)O)c1c2c(cc(OC)c1-3)OCO2 (racemic)", "test-readout": "Activity", "unit-text": "%", "reported-result": 41.8}
{"compound": "COc1cc2c(OC)cc3c(c2cc1OC)N(C)[C@H](CO)c1c2c(cc(OC)c1-3)OCO2", "test-readout": "Activity", "unit-text": "%", "reported-result": 41.38}
{"compound": "COc1cc2c(OC)cc3c(c2cc1OC)N(C)[C@@H](CC(=O)C[C@H]1c2c4c(cc(OC)c2-c2cc(OC)c5cc(OC)c(OC)cc5c2N1C)OCO4)c1c2c(cc(OC)c1-3)OCO2", "test-readout": "Activity", "unit-text": "%", "reported-result": 40.26}
{"compound": "COc1cc2c(OC)cc3c(c2cc1OC)N(C)[C@H](CC(C)=O)c1c2c(cc(OC)c1-3)OCO2", "test-readout": "Activity", "unit-text": "%", "reported-result": 42.15}
{"compound": "COc1cc2c(OC)cc3c(c2cc1OC)N(C)[C@@H](CC(C)=O)c1c2c(cc(OC)c1-3)OCO2", "test-readout": "Activity", "unit-text": "%", "reported-result": 53.88}

query: Give its Activity value. Item: COc1cc2c(OC)cc3c(c2cc1OC)N(C)[C@@H](CO)c1c2c(cc(OC)c1-3)OCO2
result: 47.54
